Experimental Target: human NGF (R&D system) (human, UniProt P01138 122-241)
Sequence (P01138 122-241 limits assumed): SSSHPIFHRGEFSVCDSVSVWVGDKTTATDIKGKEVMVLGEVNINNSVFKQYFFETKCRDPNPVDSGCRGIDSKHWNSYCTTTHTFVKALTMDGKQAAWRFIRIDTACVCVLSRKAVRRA
Test Details: cell-based or functional assay
Outcome Measure: TF1 Cell Proliferation Inhibition Assay IC50 (nM)
Report the value in nM with no unit label.

Ab61 (antibody, human IgG1, V domains shown) VH: EVQLVQSGAEVKKPGATVKISCKVSGYTFITYWISWVQQAPGKGLEWMGAIDPSDSDARYSPSFQGRVTITADTSTDTAYMELSSLRSEDTAVYYCAKSDPGYSGYSLLYGFDSWGQGTLVTVSS VL: DVVMTQSPLSLPVTLGQPASISCRSSQSLVQRNANTYLSWYQQRPGQSPRLLIYQVSNRYSGVPDRFSGSGSGTDFTLKISRVEAEDVGVYYCGQGAHLPLTFGQGTKVEIK :: 0.346

Please find the next binder below.
Lookup: Report measured TF1 Cell Proliferation Inhibition Assay IC50; entry is Ab36 (antibody, human IgG1, V domains shown) VH: EVQLVQSGAEVKKPGATVKISCKVSGYTFITYWISWVQQAPGKGLEWMGAIDPSDSDARYSPSFQGRVTITADKSTDTAYMELSSLRSEDTAVYYCAKSDPGYSGYSLLYGFDSWGQGTLVTVSS VL: DVVMTQSPLSLPVTLGQPASISCRSSQSLVQRNGNTYLSWFQQRPGQPPRLLIYQVSNRYSGVPDRFSGSGSGTDFTLKISRVEAEDVGVYYCGQGAHLPLTFGQGTKVEIK
Found: 0.234

Source listed as patent US20230220057A1.
